reported property: melting point

Here is how some compounds turned out for melting point.
Exercise: // lookup melting point for COc1cc(OC)nc(Oc2ccccc2C=O)n1
Key: 81 °C

Exercise: Need melting point, item COc1cccc(C(=O)OCC2(COC(=O)c3cccc(OC)c3)c3ccccc3-c3ccccc32)c1
Key: 129 to 130 °C

Next:
Exercise: Item O=S(=O)(Cl)c1ccc2c(S(=O)(=O)Cl)cc(S(=O)(=O)Cl)cc2c1 has what recorded melting point?
Key: 195 to 197 °C

Exercise: Report melting point for CC1(C(=O)O)CC1(F)F (stereo unspecified) please.
Key: 59 to 61 °C

Exercise: Request the reported melting point associated with CSC(Nc1cccc(C#N)c1)=C(C#N)S(=O)(=O)c1ccc(Cl)cc1
Key: 168 to 170 °C

====

reported property: melting point

Exercise: So what does the record say about melting point for Cc1nc(N)c(C#N)c(N2CCc3ccccc3CC2)n1 ?
Key: > 200 °C

Exercise: Query (compound): O=C(Cl)c1c(Cl)nc2ccc(Br)cc2c1-c1ccccc1 ; field requested: melting point
Key: 166 to 170 °C

Exercise: Find the recorded melting point belonging to O=C(OCc1ccccc1)C(C(=O)N1CC2C(=O)CCC(c3ccccc3)(c3ccccc3)C2C1)c1ccccc1 (racemic) and report it.
Key: 210 °C

Pending compound:
Exercise: Quick one: melting point for CC(C)c1nc(CCOCc2ccccc2)n(C)c1Sc1cc(Cl)cc(Cl)c1 ?
Key: 101 to 103 °C

====

melting point listing for selected molecules.

Exercise: Requested field: melting point. Item: CC(=O)/C=C(\C)c1ccc(-c2ccccc2)c(Cl)c1
Key: 66 to 67 °C

Exercise: State the recorded melting point for this entry: CC1=C(C2C=CN(C(=O)OCC(Cl)(Cl)Cl)c3ccccc32)SCC(=O)N1 (stereo not drawn)
Key: 166 to 167 °C

Next up:
Exercise: Name the recorded melting point for CN(Cc1cc(C(F)(F)F)cc(C(F)(F)F)c1)C1CCN(c2ccc(OC[C@@]3(C)Cn4cc([N+](=O)[O-])nc4O3)cc2)CC1 .
Key: 194 to 195 °C

====

reported property: melting point

Completed entries (count: 2):
Exercise: Query: melting point; subject: CNC1CCN(c2ncc(C(F)(F)F)s2)C1=O (stereo not drawn)
Key: 108 to 109 °C

Exercise: // query melting point value for entry CC1=C(C(=O)CCl)C2(C)CCC3C(CC=C4CC(O)CCC43C)C2C1 (stereo not drawn)
Key: 170 to 172 °C

Now let's try a different one.
Exercise: So what does the record say about melting point for CSC1=CC2=CN(O)NN2C(SC)=N1 ?
Key: 275 to 278 °C

====

reported property: melting point

Exercise: State the recorded melting point for this entry: CN(CC(=O)C(Cc1cccnc1)NC(=O)c1ccccc1)C(=O)N1CCCC1C(=O)O (stereo unspecified)
Key: 92 to 120 °C

Exercise: Give the measured melting point of Cc1cc(C)nc(NC(=O)N(C)C)c1 .
Key: 105 to 108 °C

Exercise: Which melting point is reported for this compound? Cc1c(NC(=O)OC(C)(C)C)cc2c(c1C)OC(C)(C)C2=O
Key: 154 to 155 °C

Exercise: Quick check: melting point of COc1ccc(-c2c(C(=O)O)n(Cc3cc4c(cc3Cl)OCO4)c3ccccc23)c(OCC(=O)O)c1 ?
Key: 61 to 62 °C

Exercise: Tell me the measured melting point of O=[N+]([O-])c1cccc(/C=C/c2nc(C3CCCCCCC3)cs2)c1 , please.
Key: 64 to 65 °C

Exercise: May I ask what melting point has been recorded for CC1(Cc2ccc(Br)cc2)C(=O)N(c2cc(Cl)cc(Cl)c2)c2ccccc21 (stereo unspecified) ?
Key: 129 to 130 °C

Exercise: # input compound: CO[C@@H](C(=O)N[C@H]1CC[C@@H](OC(=O)Cc2ccc(Cl)c(Cl)c2)CNC1=O)[C@H](O)[C@@H](O)[C@H](O)/C=C/C(C)(C)C ; wanted: its melting point
Key: 132 to 136 °C

Exercise: # lookup: melting point of O=C(c1ccc(-c2ccsc2)cc1Cl)c1cccc2c1Nc1ncccc1CN2
Key: 125 to 130 °C

Exercise: GET /values?readout=melting point&item= COc1ccc(C=Cc2cc(F)c(OC)c(OC)c2)cc1O
Key: 86 to 87 °C

Exercise: If you can, please state the reported melting point value of Cn1cc(C2=C(c3cn(CCO)c4ccccc34)C(=O)NC2=O)c2ccccc21 .
Key: 250 to 252 °C
